Sourced from paper PMC9516332

Molecular target: panel of 255 wild-type kinases (Homo sapiens)
Assay: Kinase panel profiling at 1 µmol/L (MSA or IMAP), percentage inhibition
Format: biochemical
Details: kinase RSK1; 1 µmol/L single concentration; read-out: %-inhibition at 1 µmol/L, RSK1
Measured inhibition at 1 µM, listed per entry for reference.
Report only the number, with the unit % understood.

Consider the worked cases shown below.
What value of inhibition at 1 µM has been recorded for this entry: `CO[C@]1(C(=O)N[C@@H](C)c2ccc(-n3cc(F)cn3)nc2)CC[C@H](c2nc(C)cc(Nc3cc(C)[nH]n3)n2)CC1`
26

Please answer likewise for `CCN1CCN(c2ccc(Nc3cc(N(C)C(=O)Nc4c(Cl)c(OC)cc(OC)c4Cl)ncn3)cc2)CC1`
-3

Item: `Cn1cnc2c(F)c(Nc3ccc(Br)cc3Cl)c(C(=O)NOCCO)cc21`
-8

With those in mind, consider the next molecule.
Recorded inhibition at 1 µM of `FC(F)(F)c1ccc(CNc2ccc(Cc3c[nH]c4ncc(Cl)cc34)cn2)cn1` , please.
7.43

---

Molecular target: panel of 255 wild-type kinases (Homo sapiens)
Assay: Kinase panel profiling at 1 µmol/L (MSA or IMAP), percentage inhibition
Type: biochemical
Conditions: MSSK1; 1 µmol/L single concentration; read-out: %-inhibition, MSSK1
Endpoint label: inhibition at 1 µM

Below, each entry is followed by its recorded inhibition at 1 µM result.
Fill blank: measured inhibition at 1 µM of the compound `C[C@H](Nc1ncnc2nc[nH]c12)c1cc2cccc(Cl)c2c(=O)n1-c1ccccc1` is ____.
-2.73%

Also need `O=C(Nc1cnn2ccc(N3CCC[C@@H]3c3cc(F)ccc3F)nc12)N1CC[C@H](O)C1` , thanks.
-1.58%

Can you handle `FC(F)(F)c1ccc(CNc2ccc(Cc3c[nH]c4ncc(Cl)cc34)cn2)cn1` next?
-4%

Also, `COc1ccc(CN2C3CC2CN(c2ccc(-c4cc(OCC(C)(C)O)cn5ncc(C#N)c45)cn2)C3)cn1` please.
2.44%

For `CCN1C(=O)N(c2c(F)c(OC)cc(OC)c2F)Cc2cnc3[nH]c(CN4CCOCC4)cc3c21` then?
-7%

Others:
# query: inhibition at 1 µM of entry `CO[C@]1(C(=O)N[C@@H](C)c2ccc(-n3cc(F)cn3)nc2)CC[C@H](c2nc(C)cc(Nc3cc(C)[nH]n3)n2)CC1`
-6%

Next up: `Cn1cc(-c2cc3c(N4CCN(c5ncc([C@@](C)(N)c6ccc(F)cc6)cn5)CC4)ncnn3c2)cn1`
0.0476%

---

Tested on: 134 cancer cell lines
Test: Cell viability assay (ATPlite, 72 hours), IC50 on cancer cell line panel
Conditions: read-out: IC50 in cell proliferation assay, Hs 852.T cell line
As shown below, each of these compounds has a reported pIC50 value.
# reply with the number alone; pIC50 is -log10 of concentration in mol/L

The examples below pair each entry with its known result.
Given the entry `CN1CCN(c2ccc(C(=O)Nc3n[nH]c4ccc(Cc5cc(F)cc(F)c5)cc34)c(NC3CCOCC3)c2)CC1` , what pIC50 was observed with 134 cancer cell lines?
5.39

Would you mind doing `CC(=O)Nc1cccc(-n2c(=O)n(C3CC3)c(=O)c3c(Nc4ccc(I)cc4F)n(C)c(=O)c(C)c32)c1` as well?
6.66

Do the same for `C[C@H](Nc1ncnc2nc[nH]c12)c1cc2cccc(Cl)c2c(=O)n1-c1ccccc1` please
4.67

Now look at this entry.
Provide value of pIC50 for this record tested with 134 cancer cell lines: `Cn1cnc2c(F)c(Nc3ccc(Br)cc3F)c(C(=O)NOCCO)cc21`
6.57
